SYSTEM: vaccinia-related kinase 1 (VRK1) (Homo sapiens, UniProt Q99986)
Sequence (Q99986 whole entry): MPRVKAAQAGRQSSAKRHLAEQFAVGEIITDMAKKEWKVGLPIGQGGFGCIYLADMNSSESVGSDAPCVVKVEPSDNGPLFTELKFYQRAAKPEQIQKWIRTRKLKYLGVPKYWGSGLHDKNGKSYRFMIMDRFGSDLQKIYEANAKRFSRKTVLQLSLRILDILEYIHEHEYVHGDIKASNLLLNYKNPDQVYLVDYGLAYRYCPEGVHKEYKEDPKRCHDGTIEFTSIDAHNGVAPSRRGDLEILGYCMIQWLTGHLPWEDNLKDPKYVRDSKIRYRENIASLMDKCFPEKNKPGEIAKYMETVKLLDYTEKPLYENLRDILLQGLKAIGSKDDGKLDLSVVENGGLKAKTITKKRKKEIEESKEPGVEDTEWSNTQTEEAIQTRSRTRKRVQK
MEASUREMENT NAME: Kd (nM)

[
  {
    "SMILES NOTATION": "C[C@H]1[C@H](C)CC[C@]2(C(=O)O)CC[C@]3(C)C(=CC[C@@H]4[C@@]5(C)CC[C@H](O)C(C)(C)[C@@H]5CC[C@]43C)[C@H]12",
    "UNIT ABBREVIATION": "nM",
    "VALUE MEASURED": 731
  }
]
